Molecular target: T1, murine CD22 protein (ACROBiosystems, SI2-M52Ha) (murine, UniProt P35329 22-708)
T1 construct: extracellular domain; also called murine CD22-ECD; murine CD22-ECD-His
T1 sequence (looked up): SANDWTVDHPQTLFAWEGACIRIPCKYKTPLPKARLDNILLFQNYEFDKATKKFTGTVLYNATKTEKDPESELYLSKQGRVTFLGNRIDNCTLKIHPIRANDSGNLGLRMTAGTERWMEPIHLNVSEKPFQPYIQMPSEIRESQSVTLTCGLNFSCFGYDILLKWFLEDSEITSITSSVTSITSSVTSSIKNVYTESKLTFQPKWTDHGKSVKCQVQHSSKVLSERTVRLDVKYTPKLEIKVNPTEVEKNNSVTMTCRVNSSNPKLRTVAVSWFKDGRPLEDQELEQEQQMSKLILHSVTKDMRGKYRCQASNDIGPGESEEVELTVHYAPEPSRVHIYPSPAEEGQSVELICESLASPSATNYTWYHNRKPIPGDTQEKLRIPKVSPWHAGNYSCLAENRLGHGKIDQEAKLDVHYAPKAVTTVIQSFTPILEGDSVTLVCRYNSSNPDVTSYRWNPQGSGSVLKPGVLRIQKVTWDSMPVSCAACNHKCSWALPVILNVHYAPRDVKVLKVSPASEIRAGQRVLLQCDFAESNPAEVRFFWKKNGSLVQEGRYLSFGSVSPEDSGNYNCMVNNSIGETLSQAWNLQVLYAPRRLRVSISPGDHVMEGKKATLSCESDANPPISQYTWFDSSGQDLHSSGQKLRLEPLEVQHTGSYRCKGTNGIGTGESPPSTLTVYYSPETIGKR
Assay: ELISA, coated murine CD22, 10 nM Ab
OD450 listing for selected binders.
Hi! Could you send only the number? It should be in OD450, unit omitted.

Sample answers from the record:
* F1.267.9 human-murine chimeric antibody (antibody, human IgG1, kappa, V domains shown, Chimeric, human IgG1 / kappa; VL tied by name) VH: EVQLQQSGPVLVKPGASVKMSCKASGYTFTDFYMNWAKQSHGKSLEWVGVINPYNGGINYNQKFKGKATLTVDKSSSTAYMEFNSLTSEDSAVYYCARRMEYHAMDYWGQGTSVTVSS VL: DIVLTQSPASLAVSLGQRATISCRASESVDNYGFDFIHWYQQKPGQPPKLLIYRASNLESGIPARFSGSGSRPDFTLTINPVETDDVATYYCQQSIKDPWTFGGGTKLEIKR | 0.08
* F1.17.1 human-murine chimeric antibody (antibody, human IgG1, kappa, V domains shown, Chimeric, human IgG1 / kappa) VH: QVQLKESGPGLVAPSQSLSITCTVSGFSLSRYTVHWVRQPPGKGLEWLGMIWGGGSTDYNSALKSRLSISKDNSKSQVFLKMNSLQTDDTAMYYCARPHDFDAGGFAYWGQGTLVTVSA VL: QIVLTQSPAILSTSPGEKVTMTCSASSRVNYMYWYQQKPGSSPRLLIYDTSNLASGVPVRFSGSGSGTSYSLTISRMEAEDAATYYCQQWTSYPLTFGAGTKLELKR | 0.06

// next entry
Incoming: Any idea what OD450 was measured for F2.205.9 human-murine chimeric antibody (antibody, human IgG1, lambda, V domains shown, Chimeric, human IgG1 / lambda; VL tied by name) VH: QVTLKESGPGILQPSQTLSLTCSFSGFSLSTSGMGVGWIRQPSGKGLEWLAHIWWDDDEYYNPALKSRLTISKDTSKNQVFLKIANVDTADTATYYCARISIPYGYYDWFFDVWGTGTTVTVSA VL: QAVVTQESALTTSPGETVTLTCRSSTGAVTTRNYANWVQEKPDHLFTGLIGGTNNRAPGVPARFSGSLIGDKAALTITGAQTEDEAIYFCALWYSNHFIFGSGTKVTVLG ?
Outgoing: 0.06
